# Target Or System: T1, human PILRA, c-term His-Avi tag (human, UniProt Q9UKJ1 20-197, limits assumed)
# T1 construct: not shown: C-terminal His-Avi tag
# T1 sequence (Q9UKJ1 20-197 limits assumed): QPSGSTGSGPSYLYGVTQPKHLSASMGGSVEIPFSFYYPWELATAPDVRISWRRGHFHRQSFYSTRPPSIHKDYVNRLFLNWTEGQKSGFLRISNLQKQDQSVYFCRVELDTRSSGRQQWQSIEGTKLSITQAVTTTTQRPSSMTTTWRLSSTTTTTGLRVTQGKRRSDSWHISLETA
# Protocol Description: SPR (Biacore), antibody captured, PILRA as analyte
What t½ was measured for each of the following?
Give bare numbers, in min.

| Binder | Unit Label | t½ |
| --- | --- | --- |
| C1 (antibody, V domains shown, first hybridoma campaign) VH: QIQLVQSGPELKKPGETVKISCKASGYTFTTYGMSWVKQAPGKGLKWMGWINTYSGVPTYADDFQGRFAFSLETSASTAYLQINNLKNEDTAPYFCVRDGYAAPYWGQGTLVTVSA VL: NIMMTQSPSSLAVSAGEKVTMRCKSSQSVLYSSNQKNYLAWYQQKPGQSPKLLIYWASTRESGVPDRFTGSGSGTDFTLTISSVQAEDLAVYYCHQYLSSWTFGGGTKLEIK | min | 3.2 |
| A12 (antibody, V domains shown, phage campaign) VH: QVQLVQSGAEVKKPGASVKVSCKASGYNFNDYYIHWVRQAPGQGLEWMGWISAYNGNTNYAQKLQGRVTMTRDTSTSTVYMELSSLRSEDTAVYYCARDGWYCSSSSCYTGSDYWGQGTLVTVSS VL: DIQMTQSPSSLSASVGDRVTITCRASQSISNYLNWYQQKPGKAPKLLIYGASTLHSGVPSRFSGSGSGTDFTLTISSLQPEDFATYYCQQSYSTPFTFGPGTKVDIK | min | 9.6 |
| E15 (antibody, V domains shown, B-cell cloning campaign (mice)) VH: QVQLQQSGAELVKPGASVKLSCKASGNTFTIYDINWVRQRPEQGLEWIGWIFPGDGSTKYNGKFKGKATLTTDKSSSTAYMQLSRLTSEDSAVYFCARRAHYYGSSFDYWGQGTTLTVSS VL: DIQMTQSSSYLSVSLGGRVTITCKASDHINNWLAWYQQKPGNGPRLLISGAISLEIGVPSRFSGSGSGKEYTLSITSLQTEDVATYYCQQYWSPPWTFGGGTKLEIK | min | 6.9 |
| C3 (antibody, V domains shown, first hybridoma campaign) VH: EVHLQQSGPELVKPGASVKISCKASGYTFTDYYLNWVKLSLGKSLEWIGDINPNDGDTSYNQTFKGKATLTVDKSSSTAYMELRSLTSEDSAVYYCARRASSYYSNYGWYFDVWGTGTTVTVSS VL: DILLTQSPAILSVSPGERVSFSCRASQSIGTSIHWYQQRTNGSPRLLIKFASESISGIPSRFSGSGSGTDFTLSINTVESEDIGDYYCQESNSWPTTFGAGTKLELK | min | 2.7 |

QUERY: Recorded t½ of B4 (antibody, V domains shown, B-cell cloning campaign (mice)) VH: EVKLVESGGGLVKPGGSLKLSCTASGFTFSNYAMSWVRQTPEKRLEWVASISGGGSTYYPDSVKGRFTIAIDYARNILYLQMSSLRSEDTAIYYCTRGVSYGDYAMDYWGQGTSVTVSS VL: ETTVTQSPASLSMAIGEKVTIRCVTSTDIDDDMNWYQQKPGGPPKLLISEGNTLRPGVPSRFSSSGYGSDFVFTIEDMLSEDVADYYCLQSDNLPLTFGAGTKVELK , please.
RESULT: 21.4
